test.name: protease stability score; higher = more stable; yeast display proteolysis, trypsin and chymotrypsin
Reported protease stability score is given for each of the following sequences.
quantity.kind: protease stability score

* SEEEKHVHRFLSEWTRSLKTGDEQRIVRLLDPTARLFFEGREYHGMETIAHQIVHDIRHHGFTLEVEIQDFHVQGDKAEHDGILIVKVDGKEIHRKLILVVTKIDGRWFLSEVIIK | 0.923
* GEEDEEFSKLMDETVKSLQTGDETHLKKLLDPNVILHVGDKEFHGRERAIDWYRHLRIHDMTIHHWEIQGDKAHVDGKLHVEVDGQHYDAKLHIVLEKINGQWYITSIHYK | 2.06
* DEHKEQLRRIFELMLHLFLTGDWKQLWELADPHARFRIDGRDIHGRDNFAEEVKRIVDEWRIHIDPRHIDVFDGVNHVRTDLFFEYDGRKLRHHTRVINIVVDGRLKEVEFRIE | 1.36
* SEEDRDVRHFLEVWWHRVQTGDEDSLHELADPRMRVDINGRILHGREHISRFMIELTESFGATPEDFQIEHVDTVGNKVHIKTRIFIRQGNFNLIRDTEMIVLKVDGRWLLTEVRVR | 2.6
* DEEEHRIIRFIKKVLDDIVTGDWDSFRRNLDPNAKLSAEFEGRREEHVGRDIATRWMREIRIHDMEIKDMRLIDGVNIVKGHFDGRINGQRIRTDTEIWLYVVDGRITSVTIHII | 0.776
* DKEEEHMREMVRLYQHIRLTGNEEVIRNLADPTMRFDLDFEEKRVTAIGREQYLRVTDKLKKDLGLENIEVRVKEMEAFDGVIHINGHERFNGRSYDTHIWLVIVNGRWEFIRIEIR | 0.116

###

Item-by-item account of protease stability score
test.name: protease stability score; higher = more stable; yeast display proteolysis, trypsin and chymotrypsin
quantity.kind: protease stability score

* DEIHKDAKEFTKRFIDSLHTGDWKELLEMFDPHTRIVVGDKEFIGMDEILRFERELGIEKVDYHLKHVEIRVQGEKADIHITGEIRFNGQTVDRELNIHARKIDGRWKVDEVNLDRR | 1.88
* DEEKEEARRVLEIFIRSTRTGNFKENTEQMDPNVRIDINGVELHGREDAIRLAVEARIHRVEIEHVTTIGDKVEVHGHVDGTFNGQRTRTRLYVVIEKVDGRWLISEYRYH | 1.29
* DEERELLKFFLKAWSKALVTGDEQTLLDLVDPNARNVIGDKDLIGREFLEKVLREMRITEVHIEDIKFQGEFVTSDLRMRVRQGDKEFDIRVRLVVYKYDGRWVFKTFHME | 2.23

###

test.name: protease stability score; higher = more stable; yeast display proteolysis, trypsin and chymotrypsin;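 also: relative to predicted unfolded state with 0 unfolded-like and 1 meaning tenfold more protease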
quantity.kind: protease stability score

• SEDQEMSDHASSLLLHTMETGDFRLLHEFLDPNTRVSVNGRDVIGRDETVRHMIEHIKILGVSKVEARLHDVKLINGVAENDVEIDFNGRRIRVWWFVEKINGRWVITHMRVL = 1.47
• SDEEHRREKLNRIMLEWWMTGDWKHIEHLADPNVRLEMNIGNKHLDHHGREELSRLIIELLKELGFKHSHLEHVEIQGDKFISIVRLHVNGVHFIVHIESVIINGKLTELRIEIRKV = 1.21
• DEDDEDSEEASRRMVETHLTGDEDKQSKMMDPNVKFLFNGVEFHGWELLHKIWTEFGIKHHQLKSVEVRNINGQVRVHVDGVIDVNGVSLKSELNFVAEKVDGRWRVKRIEIHIR = 1.58
• DEDTHWIRDALRRYEEMLRTGDEDLFRRLFDPHVRVEINGQENHGMESILKLYRDLVEHLGIKHVQEVELEDVNMIDGVIILHIRVRVRFDGKHETIRMNVVAYKVNGQWRLHELKEG = 1.47
• NELEKHLREMTREMLEAWRTGDFDHLEHLADPHVRIETIYNGQREEFHGREWLIKAVERLDRLMGIDHIYFQEWTTIGDFVDVDLRTQVGDKRIRLHMELNVVNGRIKFHRIEVE = 1.24

###

test.name: protease stability score; higher = more stable; yeast display proteolysis, trypsin and chymotrypsin;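 also: relative to predicted unfolded state with 0 unfolded-like and 1 meaning tenfold more protease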
quantity.kind: protease stability score

- DETEELFEEIVKIFIEAMETGDWRLLKRMVDPHVRSIQGDFHLHGRESMLELWLHIRIDRITLTDARVRIQGEKVHVDLRVKTNGIINGRRKDTQTHVHLHLDKVNGVWSITITNIIFE: 0.553
- DEEEDAKKFVLDVWRETLETGDEKLLLELIDPHVRIIIGDKEDHGRETLLHHFREIRFEDFQVRDIRVIGEKIHIHGEHLIRFDGRRVRLEIEIIMTKINGRWLVEEIRIR: 2.58
- SEDEENIRRIIRRFVHTFETGDEDIMRELADPHVRLIFNGQHYIGREWVVEIMSEHVKRADHTEVHIHEIHIIGDKVKVHSRLHINVDGVFRNIELRIDIMKVNGRWLIHHVEFR: 1.48
- EEEAAHQFNKWLSLMKHGNEHKASEMLDKDAHIKVGDKTLQGREDVQRDVRRRKEELKFSMTIVDYKDHGDKARLTVEQTNDHNGRPRTRRANVTVHVSNGRVKEIVINDDS: -0.16
- DEEDRHLEEFIRLWLHFFFTGDWEFHMKNADPNVKLDAENRSVHGRDDASRTLVEIVRRLGIDHVELKDSHVIDGVIELHLELKIGDKRRTMHIHINIFNGRIRSVRIHFS: 1.28
- DDEERIWRELLEDLLKALKTGDEHRIQDLLDPHVRLEIGDKEFHGREEVTEWFRRLMEKIKGAVFHIHIHDFRIQGDKLLADTRLIIHIGDKHEESETEMIVLKVNGRWLIDEIRVK: 2.59

###

test.name: protease stability score; higher = more stable; yeast display proteolysis, trypsin and chymotrypsin;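 also: relative to predicted unfolded state with 0 unfolded-like and 1 meaning tenfold more protease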
In this section, each of the sequences is paired with its reported protease stability score.
quantity.kind: protease stability score

- DEDERERRWIYQLFLYLFITGDFHTLENLFDPHMRLHYGNKEYHGREEVSKTMLKIWRDLGVKYLSLRHFHIEIFNGRVSLHFYGEQDINGVHRDIEFRVDLVKINGKWVIEQIDLRIN: 1.62
- GEDKELARKAVEEELESLLTGDEDRLKELIDPHTKVFINGREEIGMEALEDVLKKLGFKHIKVHHFDIRVQGDKVKNDLRGIFHVNGKDIDTQLIIISLKYNGQWFNHSLEWRTR: 0.595
- DEDEERARHHLEEIIKTIHTGDENLYEKLVDPNAWMDINGRELHGREEVVKYWSHEAHRFGIDVIRLRHEERVGNYVHSDTDLEVNGKTIKTRLVMLKINGKWVIQSFEMH: 0.75
- SEREEEMKHLHKNLVHNLFTGDEDSHKKLADPNARSVFDGRDFIGMDWWSRYYRHVFERFKGLRLENHHIHFQGNYLHIEARSYIGDKEEIWHFDYFMFDGKVHEVRMEVTKR: 0.813
- DEERERREDETRLLLEILITGDEDRFRQLADPHMKLHIGDKDFIGREVAVKFLRDLWREFGIKHILFEDSTIVGDKLEHRMHLEVNGKRRRMELENVIIDGRVHSMHIRIH: 1.39
- DEEEDRIMKMLRLIILEIVTGDEEKFRHLFDPDARFIVGNKTYHGWEMWHEEFRHIRITEMELEHYDVINGRAHLHTRLRGKINGREIDTETRLIVVVINGKIHSIELRIH: 2.18

###

test.name: protease stability score; higher = more stable; yeast display proteolysis, trypsin and chymotrypsin;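 also: relative to predicted unfolded state with 0 unfolded-like and 1 meaning tenfold more protease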
Mark f for protease stability score values under 1, and t for everything at or above.

* SEDEKLVHHAANLILEALWTGDEDTLREMVDPNVRTHINGREFHGWEESIRIILHHLNRFKNVRWHLHDQRVYGEKSHNDVRTNVDGVTLEVILILIVVDGRIRSISIEIR | t
* SEDHELLKRELETFIKHLETGDEDILRRLADPHVRLEYNGKEFHGRDRIVEEWVRIAREIRIKVEIHHITYIGDKLEVDTILKIEQGDKRTEFRIEIFIQKVNGQWLLKEIKIK | t
* TEDERLFHETLKIFEHAVQTGDEEELERMLDPNVRSTINGVRLHGRESFRKLFHIIWREIRFESVDVKRIHIQGDKMIWFTRIDGIFNGQRDLREVTIFADKIDGRWIFKEVDVR | t
* SHNDKLWHEDIELFIEAWETGDWKLLVEMLDPHTRIEIRQGDKTIVLHGREDASRDIIEYTEFFKNVTITKDDRHIQGDKTEMHITIIIGEFVLRTIIEFDMFNGQLKTYRRKVL | t
* EEWEKAIKFAVKLYKEIMETGDEDMQSHLFDPNVRISVGNKERHGMEEVTKIMTEWRLDDHHVNHVELQGNKVSSDGEINGTFDGRRHRVRIVLIILKVNGVWRIEEVRVI | f
* DEDRHDVKRWLEFLVKLMETGDEEVLRTLADPNTRVDINGRDNHGWESVVTVLRELGANHIHHIEIKHLHIINGRVHIDMRVHRIQGDKTLDFDIHLHANKYNGRWHLKSVQIH | t
* DEHEERLEHWAEVIIRSWITGDESLFRHLFDPHVRTEVNGVERHGRDEAVKMERLIREHLGVKHEEIKDYHVQGDKIHVDSRVDVNGVKINTRIHVLVVNGRIKEVRFEFD | f
* DEEHEKLYQDLEYWVKMVRTGDEDSHLEYADPDVRLDVNGQQFIGREEFTRFFRTLSRELGLDNINFRIKDIRNVGDKIDIDGHREINGRRVRIILVAWKFNGRWYLHEERIR | t
* DEHERDAHRFIEHLWRILATGDEEELRKLFDPDAKHHDENELYHGREKVTKFISHRFKHLGIDHVEFRLTDLEVQGDKVISRILVIQRVNGVEYRIDMLFIFHKINGRWLIKSLEVH | t
* SEDHEATHLIVELLERALKTGNERLWKDLFDPNVRIDINGKYFHGREEYVHFFKEWRFHDSRVHVHEVRVNEHELHIHGEVESHVTYNGQHRNLRLETTLFVIKVNGRWLFRHIEVR | t
* DEREKELERIARELLKALYTGDEDILDKLVDPNVRLELDIDGKTNDIHGMENWFRFYETQWKKLGVDVYDIKDMDVWNGKITINSRVEVNGRYIDTRLILVVIDGRMHEIHIKEK | t
